# Tested on: S. aureus (14 isolates)
# Type: cell-based, Staphylococcus aureus
# measurementParameters: 20 h
Exercise: for every item that follows, state its recorded S. Aureus (14) MIC90.
Give bare numbers, in µg/mL.

CC[C@H](C)[C@H](NC(=O)[C@@H](Cc1ccccc1)NC)C(=O)N[C@@H](CO)C(=O)N[C@H](CCC(N)=O)C(=O)N[C@@H](C(=O)N[C@H](C(=O)N[C@@H](CO)C(=O)N[C@H]1C(=O)N[C@@H](C)C(=O)N[C@@H](CCCCNC(=N)N)C(=O)N[C@@H]([C@@H](C)CC)C(=O)O[C@H]1C)[C@@H](C)CC)[C@@H](C)CC; 0.25

Turning now to a further record.
Which S. Aureus (14) MIC90 reading was recorded for the compound CC[C@H](C)[C@H](NC(=O)[C@@H](Cc1ccccc1)NC)C(=O)N[C@@H](CO)C(=O)N[C@H](CCC(N)=O)C(=O)N[C@@H](C(=O)N[C@H](C(=O)N[C@@H](CO)C(=O)N[C@H]1C(=O)N[C@@H](C)C(=O)N[C@@H](CCCCN)C(=O)N[C@@H]([C@@H](C)CC)C(=O)O[C@H]1C)[C@@H](C)CC)[C@@H](C)CC [[Lys10]teixobactin, reference compound] ?
0.5

###

# Tested on: S. aureus (14 isolates)
# Type: cell-based, Staphylococcus aureus
# measurementParameters: 20 h
measurementType: S. Aureus (14) MIC90 (µg/mL)
Answers are plain numbers, in µg/mL.

CC[C@H](C)[C@H](NC(=O)[C@@H](Cc1ccccc1)NC)C(=O)N[C@@H](CO)C(=O)N[C@H](CCC(N)=O)C(=O)N[C@@H](C(=O)N[C@H](C(=O)N[C@@H](CO)C(=O)N[C@H]1C(=O)N[C@@H](C)C(=O)N[C@@H](CCCNC(=N)N)C(=O)N[C@@H]([C@@H](C)CC)C(=O)O[C@H]1C)[C@@H](C)CC)[C@@H](C)CC [[Arg10]teixobactin, reference compound]; 0.5

Turning now to a further record.
Please provide the recorded S. Aureus (14) MIC90 for CC[C@H](C)[C@H](NC(=O)[C@@H](Cc1ccccc1)NC)C(=O)N[C@@H](CO)C(=O)N[C@H](CCC(N)=O)C(=O)N[C@@H](C(=O)N[C@H](C(=O)N[C@@H](CO)C(=O)N[C@H]1C(=O)N[C@@H](C)C(=O)N[C@@H](Cc2ccc(NC(=N)N)cc2)C(=O)N[C@@H]([C@@H](C)CC)C(=O)O[C@H]1C)[C@@H](C)CC)[C@@H](C)CC , tested on S. aureus (14 isolates).
0.25

###

# assay: in vitro
# Format: cell-based
# measurementParameters: human, HepG2 cells
measurementType: viability at 48 h, 100 µM (%)
Numbers only, in %.

CC[C@H](C)[C@H](NC(=O)[C@@H](Cc1ccccc1)NC)C(=O)N[C@@H](CO)C(=O)N[C@H](CCC(N)=O)C(=O)N[C@@H](C(=O)N[C@H](C(=O)N[C@@H](CO)C(=O)N[C@H]1C(=O)N[C@@H](C)C(=O)N[C@@H](CCCCNCc2ccccc2)C(=O)N[C@@H]([C@@H](C)CC)C(=O)O[C@H]1C)[C@@H](C)CC)[C@@H](C)CC [Compound 71]; 92

Could you tell me viability at 48 h, 100 µM for each of these compounds? They are listed below.
1. CC[C@H](C)[C@H](NC(=O)[C@@H](Cc1ccccc1)NC)C(=O)N[C@@H](CO)C(=O)N[C@H](CCC(N)=O)C(=O)N[C@@H](C(=O)N[C@H](C(=O)N[C@@H](CO)C(=O)N[C@H]1C(=O)N[C@@H](C)C(=O)N[C@@H](CCCNC(=N)N)C(=O)N[C@@H]([C@@H](C)CC)C(=O)O[C@H]1C)[C@@H](C)CC)[C@@H](C)CC [[Arg10]teixobactin, reference compound]
2. CC[C@H](C)[C@H](NC(=O)[C@@H](Cc1ccccc1)NC)C(=O)N[C@@H](CO)C(=O)N[C@H](CCC(N)=O)C(=O)N[C@@H](C(=O)N[C@H](C(=O)N[C@@H](CO)C(=O)N[C@H]1C(=O)N[C@@H](C)C(=O)N[C@@H](CCCCN)C(=O)N[C@@H]([C@@H](C)CC)C(=O)O[C@H]1C)[C@@H](C)CC)[C@@H](C)CC [[Lys10]teixobactin, reference compound]

1. 115
2. 95.6

###

# assay: in vitro
# Assay type: cell-based
# measurementParameters: human, HepG2 cells
measurementType: viability at 48 h, 100 µM (%)
Answers are plain numbers, in %.

CC[C@H](C)[C@H](NC(=O)[C@@H](Cc1ccc2ccccc2c1)NC)C(=O)N[C@@H](CO)C(=O)N[C@H](CCC(N)=O)C(=O)N[C@@H](C(=O)N[C@H](C(=O)N[C@@H](CO)C(=O)N[C@H]1C(=O)N[C@@H](C)C(=O)N[C@@H](CCCCNC(=N)N)C(=O)N[C@@H]([C@@H](C)CC)C(=O)O[C@H]1C)[C@@H](C)CC)[C@@H](C)CC; 119

I need viability at 48 h, 100 µM for every entry listed below, if you could help.
1. CC[C@H](C)[C@H](NC(=O)[C@@H](Cc1ccccc1)NC)C(=O)N[C@@H](CO)C(=O)N[C@H](CCC(N)=O)C(=O)N[C@@H](C(=O)N[C@H](C(=O)N[C@@H](CO)C(=O)N[C@H]1C(=O)N[C@@H](C)C(=O)N[C@@H](CCCCNC(=N)N)C(=O)N[C@@H]([C@@H](C)CC)C(=O)O[C@H]1C)[C@@H](C)CC)[C@@H](C)CC
2. CC[C@H](C)[C@H](NC(=O)[C@@H](Cc1ccccc1)NC)C(=O)N[C@@H](CO)C(=O)N[C@H](CCC(N)=O)C(=O)N[C@@H](C(=O)N[C@H](C(=O)N[C@@H](CO)C(=O)N[C@H]1C(=O)N[C@@H](C)C(=O)N[C@@H](Cc2ccc(NC(=N)N)cc2)C(=O)N[C@@H]([C@@H](C)CC)C(=O)O[C@H]1C)[C@@H](C)CC)[C@@H](C)CC

1. 117
2. 115

###

Please provide measured MIC E. coli for the entries that follow.
# Tested on: E.coli
# Assay type: cell-based, Escherichia coli
# Protocol: This assay was used to determine the minimum concentration of a test compound (i.e., an antimicrobial peptide described herein) able to inhibit the growth of a bacterial strain of interest. […] After incubation, the MIC of each test compound was determined by measuring the OD600 of each well using a plate reader. […]
One number for each entry, in µg/mL.

CC[C@H](C)[C@H](NC(=O)[C@@H](Cc1ccccc1)NC)C(=O)N[C@@H](CO)C(=O)N[C@H](CCC(N)=O)C(=O)N[C@@H](C(=O)N[C@H](C(=O)N[C@@H](CO)C(=O)N[C@H]1C(=O)N[C@@H](C)C(=O)N[C@@H](CCCCNC(=N)N)C(=O)N[C@@H]([C@@H](C)CC)C(=O)O[C@H]1C)[C@@H](C)CC)[C@@H](C)CC [Compound 5]; 10

In the following, a different compound is considered.
For the compound shown here, CC[C@H](C)[C@H](NC(=O)[C@@H](Cc1ccccc1)NC)C(=O)N[C@@H](CO)C(=O)N[C@H](CCC(N)=O)C(=O)N[C@@H](C(=O)N[C@H](C(=O)N[C@@H](CO)C(=O)N[C@H]1C(=O)N[C@@H](C)C(=O)N[C@@H](CCCCCN)C(=O)N[C@@H]([C@@H](C)CC)C(=O)O[C@H]1C)[C@@H](C)CC)[C@@H](C)CC [Compound 9] , give the reported MIC E. coli.
16

###

# Test system: S. aureus (14 isolates)
# Format: cell-based, Staphylococcus aureus
# measurementParameters: 20 h
measurementType: S. Aureus (14) MIC90

CC[C@H](C)[C@H](NC(=O)[C@@H](Cc1ccccc1)NC)C(=O)N[C@@H](CO)C(=O)N[C@H](CCC(N)=O)C(=O)N[C@@H](C(=O)N[C@H](C(=O)N[C@@H](CO)C(=O)N[C@H]1C(=O)N[C@@H](C)C(=O)N[C@@H](CCCCNCc2ccccc2)C(=O)N[C@@H]([C@@H](C)CC)C(=O)O[C@H]1C)[C@@H](C)CC)[C@@H](C)CC [Compound 71]; ≤0.12 µg/mL

Dear reader, for each entry below, please note its S. Aureus (14) MIC90.
1. CC[C@H](C)[C@H](NC(=O)[C@@H](Cc1ccc2ccccc2c1)NC)C(=O)N[C@@H](CO)C(=O)N[C@H](CCC(N)=O)C(=O)N[C@@H](C(=O)N[C@H](C(=O)N[C@@H](CO)C(=O)N[C@H]1C(=O)N[C@@H](C)C(=O)N[C@@H](CCCCNC(=N)N)C(=O)N[C@@H]([C@@H](C)CC)C(=O)O[C@H]1C)[C@@H](C)CC)[C@@H](C)CC [Compound 75]
2. CC[C@H](C)[C@H](NC(=O)[C@@H](Cc1ccccc1)NC)C(=O)N[C@@H](Cc1cccc2ccccc12)C(=O)N[C@H](CCC(N)=O)C(=O)N[C@@H](C(=O)N[C@H](C(=O)N[C@@H](CO)C(=O)N[C@H]1C(=O)N[C@@H](C)C(=O)N[C@@H](CCCCNC(=N)N)C(=O)N[C@@H]([C@@H](C)CC)C(=O)O[C@H]1C)[C@@H](C)CC)[C@@H](C)CC [Compound 73]

["≤0.12 µg/mL", "0.5 µg/mL"]

These measurements were taken from patent US20200216493A1.
